Below, each of the compounds is paired with its reported T/C value.
Tested on: L1210 leukemia ip in BDF1 mice, survival T/C
EXPERIMENT: NCI In Vivo Anticancer Drug Screen. Data for tumor model L1210 Leukemia (intraperitoneal) in B6D2F1 (BDF1) mice
TEST_CONTEXT: endpoint: mean survival time; dose: 25.0 mg/kg/injection; schedule: Q01DX009 (ip); vehicle: Klucel (hydroxypropylcellulose) (HPC); higher = longer survival
Inconclusive results and toxic doses are left out.

Sample records with T/C:
[[record]]
compound = "CCOC(=O)c1cnc(SC)nc1Nc1c(Br)cc(Br)cc1Br"
measured_value = "102 % of control"

[[record]]
compound = "Cc1cccc(NC(=O)CCl)c1"
measured_value = "94 % of control"

[[record]]
compound = "O=[N+]([O-])c1ccc(N=NNc2ccc(N=Nc3ccccc3)cc2)cc1"
measured_value = "91 % of control"

[[record]]
compound = "COc1ccc2c(c1Oc1ccc([N+](=O)[O-])cc1[N+](=O)[O-])C13CCN(C)C(C2)C1CCC1(C3)OCCO1 (stereo not given)"
measured_value = "121 % of control"


T/C for C[N+](C)(C)/N=C/c1ccccc1 ?
103 % of control

---

Test system: L1210 leukemia ip in BDF1 mice, survival T/C
EXPERIMENT: NCI In Vivo Anticancer Drug Screen. Data for tumor model L1210 Leukemia (intraperitoneal) in B6D2F1 (BDF1) mice
TEST_CONTEXT: endpoint: mean survival time; dose: 400.0 mg/kg/injection; schedule: Q04DX003 (ip); vehicle: saline with Tween-80; higher = longer survival
Toxic doses and inconclusive results are not listed.
QUANTITY_MEASURED: T/C

Sample records with T/C:
[[record]]
compound = "CC(=O)Nc1ccc(NC(=S)NC(=O)COc2ccccc2)cc1"
target = "L1210 leukemia ip in BDF1 mice, survival T/C"
measured_value = "95 % of control"

[[record]]
compound = "O=C(Oc1ccc(Cl)cc1Cl)c1ccccc1"
target = "L1210 leukemia ip in BDF1 mice, survival T/C"
measured_value = "101 % of control"


// next entry
T/C for COC(=O)c1ccccc1NC(=S)NC(=O)C(C)Oc1ccccc1 (stereo not drawn) ?
106 % of control

---

System: L1210 leukemia ip in BDF1 mice, survival T/C
EXPERIMENT: NCI In Vivo Anticancer Drug Screen. Data for tumor model L1210 Leukemia (intraperitoneal) in B6D2F1 (BDF1) mice
TEST_CONTEXT: endpoint: mean survival time; dose: 400.0 mg/kg/injection; schedule: Q04DX003 (ip); vehicle: Klucel (hydroxypropylcellulose) (HPC); higher = longer survival
Toxic doses and inconclusive results are not listed.
QUANTITY_MEASURED: T/C

[[record]]
molecule = "CCOC(=O)c1c(C)[nH]c(-c2ccccc2)c1C"
measured_value = "94 % of control"

[[record]]
molecule = "Cc1ccc(S(=O)(=O)N/N=C/c2ccc([N+](=O)[O-])s2)cc1"
measured_value = "96 % of control"

[[record]]
molecule = "O=c1c2ccccc2nc(-c2ccccc2)n1O"
measured_value = "91 % of control"

[[record]]
molecule = "O=C1c2cc(Cl)cc(Cl)c2-c2c1cc(Cl)cc2[N+](=O)[O-]"
measured_value = "92 % of control"


T/C for CCOC(OCC)C(O)CNc1ccc([N+](=O)[O-])cc1[N+](=O)[O-] (stereo unspecified) ?
103 % of control

What would you report for CCCCCCCCCCNC(C)=O ?
102 % of control

---

Below, each of the molecules is paired with its reported T/C value.
Test system: L1210 leukemia ip in BDF1 mice, survival T/C
EXPERIMENT: NCI In Vivo Anticancer Drug Screen. Data for tumor model L1210 Leukemia (intraperitoneal) in B6D2F1 (BDF1) mice
TEST_CONTEXT: endpoint: mean survival time; dose: 200.0 mg/kg/injection; schedule: Q04DX003 (ip); vehicle: saline with Tween-80; higher = longer survival
Toxic doses and inconclusive results are not listed.

[[record]]
molecule = "O=C(Nc1cccc2c1N(C(=O)c1ccco1)CCC2)c1ccco1"
measured_value = "96 % of control"

[[record]]
molecule = "S=c1cc(-c2ccco2)ss1"
measured_value = "95 % of control"


T/C for CCCCCCOP1(=O)C=C(C)CC1 (configuration not stated) ?
90 % of control

---

Test system: L1210 leukemia ip in BDF1 mice, survival T/C
EXPERIMENT: NCI In Vivo Anticancer Drug Screen. Data for tumor model L1210 Leukemia (intraperitoneal) in B6D2F1 (BDF1) mice
TEST_CONTEXT: endpoint: mean survival time; dose: 400.0 mg/kg/injection; schedule: Q04DX002 (ip); vehicle: Klucel (hydroxypropylcellulose) (HPC); higher = longer survival
Toxic doses and inconclusive results are not listed.
Below, each of the compounds is paired with its reported T/C value.

[[record]]
chem_smiles = "N/N=C/c1cc2ccccc2c2ccccc12"
quantity_measured = "T/C"
measured_value = "87 % of control"

[[record]]
chem_smiles = "CCOC(=O)COc1c(C(C)(C)C)cc([N+](=O)[O-])c(C)c1[N+](=O)[O-]"
quantity_measured = "T/C"
measured_value = "106 % of control"

[[record]]
chem_smiles = "NC(=O)c1c(F)c(F)c(N)c(F)c1F"
quantity_measured = "T/C"
measured_value = "118 % of control"

[[record]]
chem_smiles = "COc1ccc(/C=C2\\N=C(c3cccc(Cl)c3)OC2=O)cc1OC"
quantity_measured = "T/C"
measured_value = "86 % of control"

[[record]]
chem_smiles = "ClCc1c(Cl)cccc1Cl"
quantity_measured = "T/C"
measured_value = "97 % of control"


// next entry
T/C for CC1=C/C(=N\NC(N)=O)CCC1 ?
105 % of control

---

Tested on: L1210 leukemia ip in BDF1 mice, survival T/C
EXPERIMENT: NCI In Vivo Anticancer Drug Screen. Data for tumor model L1210 Leukemia (intraperitoneal) in B6D2F1 (BDF1) mice
TEST_CONTEXT: endpoint: mean survival time; dose: 200.0 mg/kg/injection; schedule: Q04DX003 (ip); vehicle: saline; higher = longer survival
Toxic doses and inconclusive results are not listed.
Below, each of the compounds is paired with its reported T/C value.

[[record]]
compound = "CC(C(N)=O)N1C(=O)C2C3CCC(O3)C2C1=O (configuration not stated)"
measured_value = "97 % of control"

[[record]]
compound = "CCOC(=O)C1NC(=O)N(c2ccccc2)C1=O (configuration not stated)"
measured_value = "108 % of control"

[[record]]
compound = "CCOC(OC(C)=O)OC(C)=O"
measured_value = "101 % of control"

[[record]]
compound = "COC(=O)N1CC=CCN1C(=O)OC"
measured_value = "116 % of control"

[[record]]
compound = "COC(=O)C1OC(CO)C(O)C1O (configuration not stated)"
measured_value = "107 % of control"


T/C for CC1=NC(C(=O)O)C(=O)O1 (configuration not stated) ?
97 % of control

What would you report for CN(C)CC1CCCCC1=O (configuration not stated) ?
110 % of control

What would you report for O=C(NNCCO)C(O)C(O)C(O)C(O)CO (configuration not stated) ?
97 % of control

What would you report for CC(=O)OC1CC2CCC1(S(=O)(=O)O)C2(C)C (configuration not stated) ?
103 % of control

What would you report for CCOC(=O)/C=C/c1c(OC)cc(OC)cc1OC ?
101 % of control

What would you report for C=C(Br)CNC(=O)OCC ?
107 % of control

What would you report for CCSc1cc(C(=O)O)cc([N+](=O)[O-])c1 ?
93 % of control

---

Below, each of the compounds is paired with its reported T/C value.
Test system: L1210 leukemia ip in BDF1 mice, survival T/C
EXPERIMENT: NCI In Vivo Anticancer Drug Screen. Data for tumor model L1210 Leukemia (intraperitoneal) in B6D2F1 (BDF1) mice
TEST_CONTEXT: endpoint: mean survival time; dose: 200.0 mg/kg/injection; schedule: Q04DX003 (ip); vehicle: saline with Tween-80; higher = longer survival
Inconclusive results and toxic doses are left out.

Sample records with T/C:
[[record]]
compound = "CC(=O)Oc1ccc(Cl)cc1Cl"
target = "L1210 leukemia ip in BDF1 mice, survival T/C"
quantity_measured = "T/C"
measured_value = "97 % of control"

[[record]]
compound = "CC1CC(C)(C)N=C(CCC2CCCCCC2=O)O1 (centres undefined)"
target = "L1210 leukemia ip in BDF1 mice, survival T/C"
quantity_measured = "T/C"
measured_value = "96 % of control"

[[record]]
compound = "CNC(=O)NCc1ccc(Cl)cc1"
target = "L1210 leukemia ip in BDF1 mice, survival T/C"
quantity_measured = "T/C"
measured_value = "98 % of control"

[[record]]
compound = "CCCCSP(=S)(OCC)OCC"
target = "L1210 leukemia ip in BDF1 mice, survival T/C"
quantity_measured = "T/C"
measured_value = "88 % of control"

[[record]]
compound = "CCCCCCCCCC(=O)N(C)OC"
target = "L1210 leukemia ip in BDF1 mice, survival T/C"
quantity_measured = "T/C"
measured_value = "88 % of control"


T/C for COC(=O)c1ccc(Cn2ccc(=O)[nH]c2=O)cc1 ?
89 % of control

What would you report for Oc1ccc(Cl)c2c1CCC2 ?
101 % of control

What would you report for COSc1ccc([N+](=O)[O-])cc1[N+](=O)[O-] ?
100 % of control

What would you report for CCOP(OCC)N1CCCCCC1=O ?
95 % of control

What would you report for NC(=O)c1cc(C(N)=O)cc([N+](=O)[O-])c1 ?
96 % of control

What would you report for COC(=O)C(CCC(=O)CN1C(=O)c2ccccc2C1=O)N1C(=O)c2ccccc2C1=O (centres undefined) ?
99 % of control

The measurements presented in this section are drawn from PubChem BioAssay AID248.
